- Tested on: 429239-143-T-J1-PDC complex spheroid viability;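 further: luminescence signal used as surrogate measure of viable cells; spheroids exposed to compounds for seven days before readout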
- TEST DESCRIPTION: Anticancer human tumor 429239-143-T-J1-PDC patient-derived small cell lung carcinoma cell line growth inhibition [POLQ]; active means viability on the fitted dose curve at most 10% of control; inactive means the rest
- PROTOCOL CONDITIONS: second compound 10 µM; first compound 1 µM
Answer with one of the outcomes T for active, F for inactive

The examples below pair each entry with its known result.
O=C(c1cc(Cc2n[nH]c(=O)c3ccccc23)ccc1F)N1CCN(C(=O)C2CC2)CC1 + COC1C(OC(N)=O)C(O)C(Oc2ccc3c(O)c(NC(=O)c4ccc(O)c(CC=C(C)C)c4)c(=O)oc3c2C)OC1(C)C = F
C#Cc1c(F)ccc2cc(O)cc(-c3ncc4c(N5CC6CCC(C5)N6)nc(OCC56CCCN5CC(F)C6)nc4c3F)c12 (stereo not given) + Cc1cccc(N(C)C(=O)C2C(O)CCN2c2nc(C)cc(C(F)(F)F)c2C#N)c1 = F
CC1COCCN1c1cc(C2(S(C)(=N)=O)CC2)nc(-c2ccnc3[nH]ccc23)n1 (stereo not given) + COC1C(OC(N)=O)C(O)C(Oc2ccc3c(O)c(NC(=O)c4ccc(O)c(CC=C(C)C)c4)c(=O)oc3c2C)OC1(C)C = F
CCCS(=O)(=O)Nc1ccc(F)c(C(=O)c2c[nH]c3ncc(-c4ccc(Cl)cc4)cc23)c1F + COC1C(OC(N)=O)C(O)C(Oc2ccc3c(O)c(NC(=O)c4ccc(O)c(CC=C(C)C)c4)c(=O)oc3c2C)OC1(C)C = F
O=C(c1cc(Cc2n[nH]c(=O)c3ccccc23)ccc1F)N1CCN(C(=O)C2CC2)CC1 + Nc1ccc(C#CCN(C(=O)Cc2ncc(C(F)(F)F)cc2C(F)(F)F)c2ccc(F)cc2)nn1 = F

Continue with the next compound.
Dear all, I need the recorded test outcome for COc1cc(C2c3cc4c(cc3C(OC3OC5COC(C)OC5C(O)C3O)C3COC(=O)C23)OCO4)cc(OC)c1O (stereo not given) + Nc1ccc(C#CCN(C(=O)Cc2ncc(C(F)(F)F)cc2C(F)(F)F)c2ccc(F)cc2)nn1 , thank you.
F
